Hey, just so you know, these numbers are from patent US9234000B2.

# Assay System: Human KLK1 (Homo sapiens (Human))
# Sequence (P06870 25-262): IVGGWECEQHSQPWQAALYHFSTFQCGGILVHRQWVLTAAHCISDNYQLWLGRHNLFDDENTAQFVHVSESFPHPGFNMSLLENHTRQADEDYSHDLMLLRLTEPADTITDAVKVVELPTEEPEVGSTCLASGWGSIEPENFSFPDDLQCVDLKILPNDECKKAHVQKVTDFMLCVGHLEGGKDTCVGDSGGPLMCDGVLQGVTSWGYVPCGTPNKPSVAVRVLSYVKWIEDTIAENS
# Method Notes: Determination of the IC50 for KLK1
# Type: biochemical
# Test Conditions: Human KLK1, 37° C., substrate H-DVal-Leu-Arg-AFC; Table 12
pIC50: −log10 of the molar value.
// pIC50 lookup, one value per entry

CCOc1ccc(C[C@@H](NC(=O)c2ccccc2)C(=O)N(C)[C@@H](Cc2ccccc2)C(=O)NCc2ccc(CN)cc2)cc1 : < 5.00
CCOc1ccc(C[C@@H](N)C(=O)N[C@@H](Cc2ccc(Cl)c(Cl)c2)C(=O)NCc2ccc(CN)cc2)cc1 : 5.43
CCCN[C@H](Cc1ccc(OCC)cc1)C(=O)N(C)[C@@H](Cc1ccccc1)C(=O)NCc1ccc(CN)cc1 : < 5.00
CN[C@H](CC1CCCCC1)C(=O)N[C@@H](Cc1ccccc1)C(=O)NCc1ccc(CN)cc1 : < 5.00
CCOc1ccc(C[C@@H](C(=O)N[C@@H](Cc2ccccc2)C(=O)NCc2ccc(CN)cc2)N(C)C(=O)CC)cc1 : 5.08
NCc1ccc(CNC(=O)[C@H](Cc2ccc(Cl)c(Cl)c2)NC(=O)[C@H](N)CC2CCCCC2)cc1 : 5.43

Form field: reported pIC50 of CN(CC(=O)O)[C@H](CC1CCCCC1)C(=O)N[C@@H](Cc1ccc(Cl)c(Cl)c1)C(=O)NCc1ccc(CN)c(F)c1
< 5.00

And CN(C(=O)[C@@H](CC1CCCCC1)NCC(=O)O)[C@@H](Cc1ccccc1)C(=O)NCc1ccc(CN)cc1 ?
< 5.00

And CN(C(=O)[C@@H](CC1CCCCC1)NCC(=O)O)[C@@H](Cc1ccccc1)C(=O)NCc1ccc(CN)c(F)c1 ?
5.11

And CCOc1ccc(C[C@@H](NC(=O)CC)C(=O)N[C@@H](Cc2ccccc2)C(=O)N(C)Cc2ccc(CN)cc2)cc1 ?
< 5.00

And NCc1ccc(CNC(=O)[C@H](Cc2ccccc2)NC(=O)[C@H](N)C(C2CCCCC2)C2CCCCC2)cc1 ?
5.02

----------
# Method Notes: Determination of thermodynamic solubility in phosphate buffer
# Type: physicochemical
# Test Conditions: pH 7.4, aqueous buffer, thermodynamic from solid, ammonium phosphate buffer pH7.4, 290 mOsm, 37° C., nominal 1 mg/mL, read-out: Solubility in PO4 buffer
Quantity Name: solubility at 1 h (µg/mL)

CCOc1ccc(C[C@@H](NC(=O)c2ccccn2)C(=O)N[C@@H](Cc2ccccc2)C(=O)NCc2ccc(CN)cc2)cc1 : 1.3

I: CCOc1ccc(C[C@@H](NC(=O)c2ccc(Cl)cc2)C(=O)N[C@@H](Cc2cccnc2)C(=O)NCc2ccc(CN)cc2)cc1
II: CCOc1ccc(C[C@@H](NC(=O)c2sccc2Cl)C(=O)N[C@@H](Cc2ccccc2)C(=O)NCc2ccc(CN)cc2)cc1
III: CCOc1ccc(C[C@@H](NC(=O)c2cccc(Cl)c2)C(=O)N[C@@H](Cc2ccccc2)C(=O)NCc2ccc(CN)cc2)cc1
List by increasing solubility at 1 h. Would you mind listing the labels in the order requested?
III, II, I
(III: 0.2 µg/mL, II: 1.39 µg/mL, I: 2.38 µg/mL)

----------
# Assay System: Human plasma kallikrein (Homo sapiens (Human))
# Sequence (P03952 391-638): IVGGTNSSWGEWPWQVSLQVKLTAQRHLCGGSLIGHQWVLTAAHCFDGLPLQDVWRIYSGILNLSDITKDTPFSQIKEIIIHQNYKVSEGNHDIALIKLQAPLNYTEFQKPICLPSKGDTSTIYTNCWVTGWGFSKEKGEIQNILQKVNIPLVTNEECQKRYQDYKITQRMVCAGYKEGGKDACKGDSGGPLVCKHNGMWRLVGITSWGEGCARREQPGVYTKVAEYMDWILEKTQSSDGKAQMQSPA
# Sequence (P03952 20-390 partner): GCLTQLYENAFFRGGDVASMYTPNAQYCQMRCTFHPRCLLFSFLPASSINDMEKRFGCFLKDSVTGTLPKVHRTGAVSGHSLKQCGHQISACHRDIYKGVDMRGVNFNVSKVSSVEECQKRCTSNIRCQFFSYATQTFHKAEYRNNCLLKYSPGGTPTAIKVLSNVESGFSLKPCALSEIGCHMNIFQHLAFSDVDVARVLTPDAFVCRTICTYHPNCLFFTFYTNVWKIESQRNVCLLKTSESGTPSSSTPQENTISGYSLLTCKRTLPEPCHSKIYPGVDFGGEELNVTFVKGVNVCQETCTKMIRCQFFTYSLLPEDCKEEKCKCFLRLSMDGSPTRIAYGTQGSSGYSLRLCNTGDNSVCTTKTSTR
# Method Notes: Determination of the IC50 for plasma kallikrein
# Format: biochemical
# Test Conditions: 37° C., substrate H-DPro-Phe-Arg-AFC, read-out: IC50 (human PKal)
Quantity Name: IC50 (nM)

CCOc1ccc(C[C@@H](NC(=O)CNC(=O)c2ccccc2)C(=O)N[C@@H](Cc2ccccc2)C(=O)NCc2ccc(CN)cc2)cc1 : 576

a: CC(C)C[C@@H](NC(=O)c1ccccc1)C(=O)N[C@@H](Cc1ccccc1)C(=O)NCc1ccc(CN)cc1
b: CCOc1ccc(C[C@@H](NC(=O)c2ccccc2)C(=O)N[C@@H](Cc2ccc(Cl)cc2)C(=O)NCc2ccc(CN)cc2)cc1
Select the item with the higher value of IC50 from the options a and b listed. Refer to your chosen entry by its label in the reply.
a

1: CCOc1ccc(C[C@@H](NC(=O)c2ccccc2)C(=O)N[C@@H](Cc2c[nH]cn2)C(=O)NCc2ccc(CN)cc2)cc1
2: CCOc1ccc(C[C@@H](NC(=O)c2ccc(OC)cc2)C(=O)N[C@@H](Cc2cccnc2)C(=O)NCc2ccc(CN)cc2)cc1
Could you check which of 1 and 2 has a smaller value for IC50? Refer to your chosen entry by its label in the reply.
2
(2: 10 nM, 1: 457 nM)

A: CCOc1ccc(C[C@@H](NC(=O)c2cccc(Cl)c2)C(=O)N[C@@H](Cc2ccccc2)C(=O)NCc2ccc(CN)cc2)cc1
B: NCc1ccc(CNC(=O)[C@H](Cc2ccccc2)NC(=O)C(Cc2ccc(OCC(F)(F)F)cc2)NC(=O)c2ccccc2)cc1 (stereo partly shown)
Select the item with the higher value of IC50 from the options A and B listed. Refer to your chosen entry by its label in the reply.
A
(A: 90 nM, B: 12 nM)

----------
# Assay System: Human plasma kallikrein (Homo sapiens (Human))
# Method Notes: Determination of the IC50 for plasma kallikrein
# Type: biochemical
# Test Conditions: 37° C., substrate H-DPro-Phe-Arg-AFC, read-out: IC50 (human PKal)
Quantity Name: IC50 (nM)

CCOc1ccc(C[C@@H](NC(=O)c2ccccn2)C(=O)N[C@@H](Cc2ccc(Cl)c(Cl)c2)C(=O)NCc2ccc(CN)cc2)cc1 [Example 165] : 70
CCOc1ccc(C[C@@H](NC(=O)CC)C(=O)N[C@@H](Cc2cccnc2)C(=O)NCc2ccc(CN)cc2)cc1 [Example 170] : 51
CCOc1ccc(C[C@@H](NC(=O)c2nc(C)oc2C)C(=O)N[C@@H](Cc2ccccc2)C(=O)NCc2ccc(CN)cc2)cc1 [Example 113] : 455
CCOc1ccc(C[C@@H](NC(=O)c2ccccc2)C(=O)N[C@@H](Cc2cccnc2)C(=O)NCc2ccc(CN)c(C)c2)cc1 [Example 192] : 12
CCOc1ccc(C[C@@H](NC(=O)c2ccccc2)C(=O)N[C@@H](Cc2cccc(C(F)(F)F)c2)C(=O)NCc2ccc(CN)cc2)cc1 [Example 144] : 340

a: CCOc1ccc(C[C@@H](NC(=O)c2ccccc2)C(=O)N[C@@H](Cc2cccs2)C(=O)NCc2ccc(CN)cc2)cc1 [Example 150]
b: CCOc1ccc(C[C@@H](NC(=O)c2ccccc2)C(=O)N[C@@H](Cc2ccc(C(F)(F)F)cc2)C(=O)NCc2ccc(CN)cc2)cc1 [Example 148]
Could you check which of a and b has a smaller value for IC50? Refer to your chosen entry by its label in the reply.
a
(a: 51 nM, b: 934 nM)

A: CCOc1ccc(C[C@@H](NC(=O)c2ccc3nc(C)ccc3c2)C(=O)N[C@@H](Cc2ccccc2)C(=O)NCc2ccc(CN)cc2)cc1 [Example 114]
B: CCOc1ccc(C[C@@H](NC(=O)c2ccc(C)cc2)C(=O)N[C@@H](Cc2ccccn2)C(=O)NCc2ccc(CN)cc2)cc1 [Example 164]
Could you check which of A and B has a smaller value for IC50? Refer to your chosen entry by its label in the reply.
B

1: CCOc1ccc(C[C@@H](NC(=O)c2ccncc2)C(=O)N[C@@H](Cc2ccc(F)c(F)c2)C(=O)NCc2ccc(CN)cc2)cc1 [Example 161]
2: CCOc1ccc(C[C@@H](NC(=O)c2cccc(C)c2)C(=O)N[C@@H](Cc2cccnc2)C(=O)NCc2ccc(CN)cc2)cc1 [Example 189]
3: CCOc1ccc(C[C@@H](NC(=O)c2cc(F)nc(F)c2F)C(=O)N[C@@H](Cc2ccccc2)C(=O)NCc2ccc(CN)cc2)cc1 [Example 108]
4: CCOc1ccc(C[C@@H](NC(=O)c2sccc2OC)C(=O)N[C@@H](Cc2ccccc2)C(=O)NCc2ccc(CN)cc2)cc1 [Example 122]
List by increasing IC50. Would you mind listing the labels in the order requested?
2, 1, 3, 4
(2: 23 nM, 1: 49 nM, 3: 232 nM, 4: 519 nM)

----------
# Assay System: Human KLK1 (Homo sapiens (Human))
# Method Notes: Determination of the IC50 for KLK1
# Type: biochemical
# Test Conditions: Human KLK1, 37° C., substrate H-DVal-Leu-Arg-AFC; Table 13
Quantity Name: IC50

Form field: reported IC50 of CCOc1ccc(C[C@@H](NC(=O)c2ccccc2)C(=O)N[C@@H](Cc2cccs2)C(=O)NCc2ccc(CN)cc2)cc1 [Example 150]
> 10 µM

And CCOc1ccc(C[C@@H](NC(=O)c2ccccc2)C(=O)N[C@@H](Cc2ccccc2)C(=O)NCc2ccc(CN)c(F)c2)cc1 [Example 154] ?
> 10 µM

And CCOc1ccc(C[C@@H](NC(=O)CC(F)(F)F)C(=O)N[C@@H](Cc2ccc(Cl)c(Cl)c2)C(=O)NCc2ccc(CN)cc2)cc1 [Example 172] ?
> 10 µM

And CCOc1ccc(C[C@@H](NC(=O)c2cccc(Cl)c2)C(=O)N[C@@H](Cc2ccccc2)C(=O)NCc2ccc(CN)cc2)cc1 [Example 88] ?
> 10 µM

And CCOc1ccc(C[C@@H](NC(=O)c2ccc(F)cc2)C(=O)N[C@@H](Cc2ccccc2)C(=O)NCc2ccc(CN)cc2)cc1 [Example 99] ?
> 10 µM

And CCOc1ccc(C[C@@H](NC(=O)c2[nH]c(C)cc2C)C(=O)N[C@@H](Cc2ccccc2)C(=O)NCc2ccc(CN)cc2)cc1 [Example 191] ?
> 10 µM

And CCOc1ccc(C[C@@H](NC(=O)c2cncc(OC)c2)C(=O)N[C@@H](Cc2ccccc2)C(=O)NCc2ccc(CN)cc2)cc1 [Example 121] ?
> 10 µM

And CCOc1ccc(C[C@@H](NC(=O)c2nc(C)oc2C)C(=O)N[C@@H](Cc2ccccc2)C(=O)NCc2ccc(CN)cc2)cc1 [Example 113] ?
> 10 µM

And CCCCCC(=O)N[C@H](Cc1ccc(OCC)cc1)C(=O)N[C@@H](Cc1ccccc1)C(=O)NCc1ccc(CN)cc1 [Example 76] ?
3.6 µM

And CCOc1ccc(C[C@@H](NC(=O)NC(C)C)C(=O)N[C@@H](Cc2ccccc2)C(=O)NCc2ccc(CN)cc2)cc1 [Example 77] ?
> 10 µM

And NCc1ccc(CNC(=O)[C@H](Cc2ccccc2)NC(=O)C(Cc2ccc(OCC(F)(F)F)cc2)NC(=O)c2ccccc2)cc1 (stereo partly drawn) [Example 201] ?
> 10 µM

And CCOc1ccc(C[C@@H](NC(=O)c2ccccc2)C(=O)N[C@@H](Cc2cccc(F)c2)C(=O)NCc2ccc(CN)cc2)cc1 [Example 149] ?
> 10 µM

And CCOc1ccc(C[C@@H](NC(=O)c2[nH]ccc2C)C(=O)N[C@@H](Cc2ccccc2)C(=O)NCc2ccc(CN)cc2)cc1 [Example 124] ?
8.4 µM

And CCOc1ccc(C[C@@H](NC(=O)c2ccccc2)C(=O)N[C@@H](Cc2ccccc2)C(=O)NCc2ccc(CN)c(C)c2)cc1 [Example 182] ?
> 10 µM

And CCOc1ccc(C[C@@H](NC(=O)c2sccc2C)C(=O)N[C@@H](Cc2ccccc2)C(=O)NCc2ccc(CN)cc2)cc1 [Example 119] ?
6.1 µM

And CCOc1ccc(C[C@@H](NC(=O)c2sccc2NC(C)=O)C(=O)N[C@@H](Cc2csc3ccccc23)C(=O)NCc2ccc(CN)cc2)cc1 [Example 195] ?
> 10 µM

And CCOc1ccc(C[C@@H](NC(=O)c2ccc(OC(F)(F)F)cc2)C(=O)N[C@@H](Cc2ccccc2)C(=O)NCc2ccc(CN)cc2)cc1 [Example 80] ?
> 10 µM

And CCOc1ccc(C[C@@H](NC(=O)c2ccccn2)C(=O)N[C@@H](Cc2cccs2)C(=O)NCc2ccc(CN)cc2)cc1 [Example 157] ?
> 10 µM
